Tested on: Puccinia triticina
Assay: Wheat brown rust (PUCCRT) disease control on wheat seedlings
Assay type: in vivo
Settings: low volume application, 125.1 g/H, 3 Day Curative
Description: All fungicides were evaluated using the aforementioned method for their activity vs. all target diseases, unless stated otherwise. Wheat leaf blotch and brown rust activity were also evaluated using track spray applications, in which case the fungicides were formulated as EC formulations, containing 0.1% Trycol 5941 in the spray solutions. […] Percent disease control was calculated using the ratio of disease severity on treated plants relative to untreated plants. […]
measurement_kind: PUCCRT 3DC, LV activity at 125.1 g/H (% Control rating)

CCC(CC)[C@@H](Oc1ccccc1)[C@H](C)OC(=O)CNC(=O)c1nccc(OC)c1OC(C)=O [Cmpd 480]	A (> 80)
COc1ccnc(C(=O)N[C@@H](C)C(=O)O[C@@H](C)[C@H](Oc2ccc(-c3ccccc3)cc2)C(C)C)c1OC(C)=O [Cmpd 625]	B (≤ 80)
CCC(CC)[C@@H](Oc1ccccc1Cl)[C@H](C)OC(=O)[C@H](C)NC(=O)c1nccc(OC)c1OC(C)=O [Cmpd 604]	A (> 80)
COc1ccnc(C(=O)N[C@@H](CC(C)C)C(=O)O[C@@H](C)[C@H](Oc2ccc(Cl)cc2Cl)C(C)C)c1OCOC(C)=O [Cmpd 565]	B (≤ 80)
COc1ccnc(C(=O)N[C@@H](C)C(=O)O[C@@H](C)[C@H](Oc2ccccc2Cl)c2ccccc2)c1OCOC(C)=O [Cmpd 639]	A (> 80)
CCC(CC)[C@@H](Oc1cccc(-c2ccccc2)c1)[C@H](C)OC(=O)[C@@H](NC(=O)c1nccc(OC)c1OCOC(C)=O)C(C)C [Cmpd 654]	D

Proceeding to the next molecule to report its PUCCRT 3DC, LV activity at 125.1 g/H (% Control rating).
Asked: I'd like to know its PUCCRT 3DC, LV activity at 125.1 g/H (% Control rating). The molecule in question is COc1ccnc(C(=O)N[C@@H](C)C(=O)O[C@@H](C)[C@H](Oc2ccc(C(F)(F)F)cc2)C(C)C)c1OC(C)=O [Cmpd 629]
Given back: A (> 80)
